These measurements were taken from ChEMBL document CHEMBL5303304.

tested on: HEK-293T; assay: Incucyte cell viability with HEK293T; type: toxicity, cell-based; details: human, 24 h, 10 µM, compound concentration 10 uM, replicate number 2; also: unitless GR value; below 1 slowed growth and below 0 cell loss
Each entry below lists one item and its recorded Growth Rate value.

Sample answers from the record:
compound=COc1cc([N+](=O)[O-])ccc1NC(=O)c1ccccc1O test_target=HEK-293T assay_endpoint="Growth Rate" assay_result=-0.01
compound="CCCCCNC(=O)N1CCC(CN(Cc2ccc(Cl)cc2)Cc2ccc([N+](=O)[O-])s2)C1 (centres undefined)" test_target=HEK-293T assay_endpoint="Growth Rate" assay_result=0.49
compound="CCOC(=O)C1Cc2ccccc2CN1C(=O)c1ccc(SC)s1 (centres undefined)" test_target=HEK-293T assay_endpoint="Growth Rate" assay_result=0.5
compound="CC(Oc1cc(-c2cnn(C3CCNCC3)c2)cnc1N)c1c(Cl)ccc(F)c1Cl (centres undefined)" test_target=HEK-293T assay_endpoint="Growth Rate" assay_result=-0.11

Suppose we examine the compound O=C1COc2cc(C(=O)N(Cc3ccc(C(=O)Nc4ccncn4)cc3)C3CC3)ccc2N1 ; what Growth Rate value has been reported?
0.72

Suppose we examine the compound CN1CCN(c2ccc(Nc3ncc4cc5n(c4n3)C3(CCCCC3)CNC5=O)nc2)CC1 ; what Growth Rate value has been reported?
0.99

====

test system: Fibroblast; test: Incucyte cell viability with human fibroblast; format: toxicity, cell-based; settings: 18 h, 10 µM, compound concentration 10 uM, replicate number 1; also: unitless GR value; below 1 slowed growth and below 0 cell loss
ASSAY_ENDPOINT: Growth Rate

molecule=O=C(NCCS(=O)(=O)c1ccc(C(F)(F)F)cn1)c1ccc(Cl)cc1 test_target=Fibroblast assay_endpoint="Growth Rate" assay_result=0.55
molecule="CCOC(=O)c1ccc(N2C(=O)C(O)=C(C(=O)c3ccc(OC)cc3)C2c2ccc(F)cc2)cc1 (stereo not given)" test_target=Fibroblast assay_endpoint="Growth Rate" assay_result=-0.29
molecule=N[C@@H]1CCCN(c2c(/C=C3\SC(=O)NC3=O)cccc2-c2ccccc2)C1 test_target=Fibroblast assay_endpoint="Growth Rate" assay_result=0.83
molecule=CC(=O)c1c(C)c2cnc(Nc3ccc(N4CCNCC4)cn3)nc2n(C2CCCC2)c1=O test_target=Fibroblast assay_endpoint="Growth Rate" assay_result=0.87

Turning now to a further record.
Suppose we examine the molecule CCn1cnc2c(-c3ccc(F)c(-c4ccc(S(=O)(=O)CC)cc4OC)c3)cnnc21 ; what Growth Rate value has been reported?
-0.97

====

tested on: U2OS; assay: Incucyte cell viability with U2OS; type: toxicity, cell-based; conditions: human, 24 h, 10 µM, compound concentration 10 uM, replicate number 2; also: unitless GR value; below 1 slowed growth and below 0 cell loss
Each entry below lists one item and its recorded Growth Rate value.
Could you keep your reply to the number by itself?

compound="CCCCCNC(=O)N1CCC(CN(Cc2ccc(Cl)cc2)Cc2ccc([N+](=O)[O-])s2)C1 (stereo not given)" assay_result=0.83
compound=Cn1cc(-c2ccc3occ(-c4cccc(-c5ccncc5)c4)c3n2)cn1 assay_result=0.87
compound=Cc1nc(Nc2cnn(C3CCNCC3)c2)nc2c1N(C)C(=O)c1cc3ccccc3cc1N2C assay_result=0.62
compound=CC(C=CC1=C(C)CCCC1(C)C)=CC=CC(C)=CC(=O)O assay_result=0.99
compound=Cc1csc(S(=O)(=O)N(CC(C)C)c2cc3c(cc2OCc2ccc(C(=O)O)cc2)CCC3)n1 assay_result=0.86
compound=CN1CCN(c2ccc(Nc3ncc4cc5n(c4n3)C3(CCCCC3)CNC5=O)nc2)CC1 assay_result=0.98
compound="CCOC(=O)C1=C(C)NC(C)=C(C(=O)OC)C1c1cccc([N+](=O)[O-])c1 (stereo not given)" assay_result=0.9
compound=COCCCS(=O)(=O)c1cc(C)c(-c2ccc(F)c3c2CC[C@H]3Oc2ccc3c(c2)OC[C@H]3CC(=O)O)c(C)c1 assay_result=0.9
compound=C=C[C@@]12CCc3cc(O)ccc3[C@H]1CC[C@@]1(C)[C@H]2CC[C@@H]1O assay_result=0.91
compound=CNc1nc(-c2cc(C(=O)N3CCN(Cc4ccc(Cl)cc4)CC3)c(Cl)cn2)cs1 assay_result=0.65

Suppose we examine the compound Cl.Cl.O=C1c2ccccc2C(Cc2ccncc2)(Cc2ccncc2)c2ccccc21 ; what Growth Rate value has been reported?
0.88

====

tested on: HEK-293T; assay: Incucyte cell viability with HEK293T; format: toxicity, cell-based; details: human, 24 h, 10 µM, compound concentration 10 uM, replicate number 2; also: unitless GR value; below 1 slowed growth and below 0 cell loss
Each entry below lists one item and its recorded Growth Rate value.

Sample answers from the record:
molecule=C#Cc1cnc2[nH]cc(-c3cccc4c3CCN4C(=O)[C@@H]3CCCN3C#N)c2c1 test_target=HEK-293T assay_endpoint="Growth Rate" assay_result=-0.34
molecule="COc1ccc(OC(=O)N(CC(=O)O)Cc2ccc(OCCc3nc(-c4ccccc4)oc3C)cc2)cc1 [MURAGLITAZAR]" test_target=HEK-293T assay_endpoint="Growth Rate" assay_result=0.5
molecule="Cc1cc(C(C#N)c2ccc(Cl)cc2)c(Cl)cc1NC(=O)c1cc(I)cc(I)c1O (centres undefined) [CLOSANTEL]" test_target=HEK-293T assay_endpoint="Growth Rate" assay_result=0.91
molecule=CCC(=O)Nc1cc(Nc2cc(NC3CC3)n3ncc(C#N)c3n2)ccc1C test_target=HEK-293T assay_endpoint="Growth Rate" assay_result=0.83
molecule=O=C(NCCS(=O)(=O)c1ccc(C(F)(F)F)cn1)c1ccc(Cl)cc1 test_target=HEK-293T assay_endpoint="Growth Rate" assay_result=0.79
molecule="CCc1ccc(N(CC(C)C)S(=O)(=O)c2ccc(OCC3CCOCC3)c(CO)c2)cc1 [GSK2981278]" test_target=HEK-293T assay_endpoint="Growth Rate" assay_result=0.53
molecule=COc1cc(Cl)c(C(=O)N[C@@H](CN[C@H]2CC[C@@H](N)CC2)Cc2ccc(C#N)cc2)cc1-c1ccc(CN[C@H](C)c2ccc(C)cc2)o1 test_target=HEK-293T assay_endpoint="Growth Rate" assay_result=-0.4
molecule="CN1CCC[C@H]1c1cccnc1 [NICOTINE]" test_target=HEK-293T assay_endpoint="Growth Rate" assay_result=0.85

Turning now to a further record.
Suppose we examine the molecule Cc1nnc2ccc(-c3cccc(C(F)(F)F)c3)nn12 [CI-218872] ; what Growth Rate value has been reported?
0.99

====

system: HEK-293T; assay: Incucyte cell viability with HEK293T; assay type: toxicity, cell-based; details: human, 0 h, 10 µM, compound concentration 10 uM, replicate number 2; also: unitless GR value; below 1 slowed growth and below 0 cell loss
Recorded Growth Rate determines the group label, using I (below -0.02), II (-0.02 to below 0.7), III (0.7 or more)

molecule=Nc1c(CC(=O)O)cccc1C(=O)c1ccc(Br)cc1 class_name=I
molecule="COCCNC1CCC(Nc2cc(-c3csc(NCC4(C#N)CCOCC4)n3)c(Cl)cn2)CC1 (stereo not drawn)" class_name=III
molecule="CCn1c(-c2nonc2N)nc2c(C#CC(C)(C)O)ncc(OCC3CCCNC3)c21 (stereo not drawn)" class_name=II
molecule=O=S1(=O)NCN(C2CC2)c2ccc(F)cc21 class_name=III
molecule=Clc1ccc(-c2nc3sccn3c2/C=N/OCc2ccc(Cl)c(Cl)c2)cc1 class_name=I

Hello team, could you let me know which band the following molecule falls into: OC(CN1CCC(Cc2ccc(F)cc2)CC1)c1ccc(Cl)cc1 (stereo not drawn)
II

Hello team, could you let me know which band the following molecule falls into: CC1=NC(C=C2C(=O)Nc3ccc(F)cc32)=C(C)C1C(=O)NCC(O)CN1CCOCC1 (stereo not drawn)
I

Hello team, could you let me know which band the following molecule falls into: Cc1ccccc1Oc1cc(-n2c(=O)cc(C(F)(F)F)[nH]c2=O)c2ccccc2c1Cl
I

Hello team, could you let me know which band the following molecule falls into: CC[N+](CC)(CC)CCOc1ccc(/C=C/c2ccccc2)cc1.[I-] [STILONIUM IODIDE]
II

Hello team, could you let me know which band the following molecule falls into: CN(C)C(=O)c1cc2cnc(Nc3ccc(N4CCN(CCCCNC(=O)COc5cccc6c5C(=O)N(C5CCC(=O)NC5=O)C6=O)CC4)cn3)nc2n1C1CCCC1 (stereo not drawn)
III

Hello team, could you let me know which band the following molecule falls into: COc1ccc2c(O[C@@H]3C[C@H]4C(=O)N[C@]5(C(=O)NS(=O)(=O)C6(C)CC6)CC5/C=C\CCCCC[C@H](NC(=O)c5ccn(C)n5)C(=O)N4C3)cc(OC(C)C)nc2c1C (stereo partly drawn)
II

Hello team, could you let me know which band the following molecule falls into: CC(C)(C)C1CCc2c(sc(NC(=O)c3ccco3)c2C(=O)O)C1 (stereo not drawn)
II

====

Each entry below lists one item and its recorded Growth Rate value.
system: U2OS; test: Incucyte cell viability with U2OS; type: toxicity, cell-based; conditions: human, 6 h, 10 µM, compound concentration 10 uM, replicate number 1; also: unitless GR value; below 1 slowed growth and below 0 cell loss
Could you keep your reply to the number by itself?

Sample answers from the record:
compound="CC(=O)N1CCN(c2ccc(OCC3COC(Cn4ccnc4)(c4ccc(Cl)cc4Cl)O3)cc2)CC1 (stereo not drawn) [KETOCONAZOLE]" assay_result=0.7
compound=CC#CC(=O)N1CCN(c2nc(-c3ccc(Oc4ccccc4)cc3)c(C(N)=O)s2)CC1 assay_result=0.5
compound=Cc1c(CCC(=O)O)cccc1NC(=O)[C@@H](c1ccc(-c2cncc(Cl)c2)c(F)c1)C1CCCC1 assay_result=0.95

Suppose we examine the compound CCC(=O)Nc1cc(Nc2cc(NC3CC3)n3ncc(C#N)c3n2)ccc1C ; what Growth Rate value has been reported?
0.24

Suppose we examine the compound COCCNc1cc(NC(=O)N2CCCc3cc(CN4CCN(C)CC4=O)c(C=O)nc32)ncc1C#N [FGF401] ; what Growth Rate value has been reported?
0.86

Suppose we examine the compound CC(C)c1ccc(CC(=O)N[C@H](C)c2ccc(OCC(F)(F)F)cn2)cc1 [SUVECALTAMIDE] ; what Growth Rate value has been reported?
-0.32

Suppose we examine the compound CCOC(=O)CS(=O)(=O)c1ccc([C@@H](CO)NC(=O)c2cc3c(Cl)c(Cl)c(C)cc3n2C)cc1 ; what Growth Rate value has been reported?
-0.2

Suppose we examine the compound CN(C)CCCNc1ccnc(Nc2cccc(Cl)c2)n1 ; what Growth Rate value has been reported?
-0.98
